- Target or test system: Mitogen-activated protein kinase 7 (Homo sapiens) (UniProt Q13164)
- Sequence (Q13164 whole entry, looked up, the tested form may be a part): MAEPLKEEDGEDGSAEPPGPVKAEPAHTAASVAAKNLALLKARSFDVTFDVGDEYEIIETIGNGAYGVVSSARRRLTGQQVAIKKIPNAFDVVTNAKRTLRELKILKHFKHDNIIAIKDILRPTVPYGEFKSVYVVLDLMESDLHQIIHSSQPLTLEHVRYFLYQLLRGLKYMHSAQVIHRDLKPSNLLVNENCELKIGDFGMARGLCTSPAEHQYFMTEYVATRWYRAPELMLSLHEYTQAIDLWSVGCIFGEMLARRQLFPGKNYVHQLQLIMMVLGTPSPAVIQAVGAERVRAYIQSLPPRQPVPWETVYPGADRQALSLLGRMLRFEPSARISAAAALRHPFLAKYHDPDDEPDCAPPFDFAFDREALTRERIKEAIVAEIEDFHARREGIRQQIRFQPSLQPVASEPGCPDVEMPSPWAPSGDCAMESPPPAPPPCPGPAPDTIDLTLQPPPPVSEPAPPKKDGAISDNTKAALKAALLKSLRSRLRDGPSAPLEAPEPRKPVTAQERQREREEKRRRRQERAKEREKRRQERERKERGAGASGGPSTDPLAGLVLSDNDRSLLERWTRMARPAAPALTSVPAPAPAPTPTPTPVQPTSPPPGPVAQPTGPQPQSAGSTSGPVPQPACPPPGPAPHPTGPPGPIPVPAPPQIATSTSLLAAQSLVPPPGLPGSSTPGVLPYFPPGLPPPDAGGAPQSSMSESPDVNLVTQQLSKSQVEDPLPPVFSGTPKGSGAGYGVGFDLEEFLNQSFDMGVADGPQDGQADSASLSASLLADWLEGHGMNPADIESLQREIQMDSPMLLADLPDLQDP
- Assay remarks: ERK5 transactivation activators in reporter cells, primary screen, cell-based, HTS (AID 1508626);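 note: luciferase driven by Gal4-ERK5 fusion binding five Gal4 sites before minimal TATA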
- Condition details: HeLa Gal4-ERK5 transactivation, 18 h, at 5 µM, active compounds read high
The source made the active and inactive calls.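 Rule for the calls: active = luciferase signal above three times the same-plate solvent-only control wells; inactive = the rest.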
Collected luciferase signal values appear next to each entry.

// known answers, use as guide
INSERT INTO measurements (compound, observed_result) VALUES
  ('O=C(O)c1cc(=O)c2c(OCC(O)COc3cccc4oc(C(=O)O)cc(=O)c34)cccc2o1', '72 AU (inactive)'),
  ('CC(=O)Nc1nnc(S(N)(=O)=O)s1', '44 AU (inactive)'),
  ('CC(C)NCC(O)c1cc(O)cc(O)c1 (centres undefined)', '92 AU (inactive)'),
  ('c1ccc(CC2=NCCN2)cc1', '44 AU (inactive)'),
  ('CCN(CC)CCOC(=O)c1ccc(N)cc1', '92 AU (inactive)');

Now, please, on to the next compound.
Specify measured luciferase signal for CCOC(=O)C1=C(COCCN)NC(C)=C(C(=O)OC)C1c1ccccc1Cl (centres undefined) .
104 AU (inactive)
